# study_target: T1, COVID S1 RBM Fc fusion (Antigen 2) (SARS-CoV-2, UniProt P0DTC2 437-508)
# T1 construct: domain: RBM
# protocol_text: phage ELISA
Measured ELISA fold over background values are reported for all entries that follow.
Give the value, in units of fold over background, as a plain number.

Guide cases for ELISA fold over background, answers given:
{"binder": "1-28 (antibody, V domains shown, also called variant 1-28) VH: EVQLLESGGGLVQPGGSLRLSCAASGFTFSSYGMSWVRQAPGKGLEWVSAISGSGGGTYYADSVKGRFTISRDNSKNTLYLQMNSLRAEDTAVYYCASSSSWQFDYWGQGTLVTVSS VL: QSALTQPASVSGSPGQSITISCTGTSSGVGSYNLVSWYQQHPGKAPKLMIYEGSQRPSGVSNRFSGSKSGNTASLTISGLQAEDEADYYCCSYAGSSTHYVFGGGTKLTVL", "unit_tag": "fold over background", "ELISA fold over background": 1.2}
{"binder": "1-30 (antibody, V domains shown, also called variant 1-30) VH: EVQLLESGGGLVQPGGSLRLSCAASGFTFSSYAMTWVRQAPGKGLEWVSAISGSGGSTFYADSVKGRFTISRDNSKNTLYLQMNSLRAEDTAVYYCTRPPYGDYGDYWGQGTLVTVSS VL: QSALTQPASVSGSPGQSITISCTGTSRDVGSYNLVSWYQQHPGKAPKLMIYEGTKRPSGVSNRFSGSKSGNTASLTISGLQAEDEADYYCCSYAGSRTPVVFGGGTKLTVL", "unit_tag": "fold over background", "ELISA fold over background": 1.4}
{"binder": "1-32 (antibody, V domains shown, also called variant 1-32) VH: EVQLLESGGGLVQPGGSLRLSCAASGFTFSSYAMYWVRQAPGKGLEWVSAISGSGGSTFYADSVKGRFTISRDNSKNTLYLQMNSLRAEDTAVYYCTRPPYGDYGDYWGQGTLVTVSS VL: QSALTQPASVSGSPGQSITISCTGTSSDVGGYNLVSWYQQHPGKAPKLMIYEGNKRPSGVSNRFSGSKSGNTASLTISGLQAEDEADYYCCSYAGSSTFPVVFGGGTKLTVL", "unit_tag": "fold over background", "ELISA fold over background": 1.1}

Data request: ELISA fold over background lookup needed for 1-17 (antibody, V domains shown, also called variant 1-17) VH: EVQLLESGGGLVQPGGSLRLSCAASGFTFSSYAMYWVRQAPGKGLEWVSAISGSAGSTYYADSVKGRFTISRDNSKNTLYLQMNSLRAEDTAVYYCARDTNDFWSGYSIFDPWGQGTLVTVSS VL: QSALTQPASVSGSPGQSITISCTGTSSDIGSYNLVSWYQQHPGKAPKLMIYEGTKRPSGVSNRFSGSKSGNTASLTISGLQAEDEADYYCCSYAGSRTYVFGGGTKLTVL , thanks.
Data returned: 1.3

Data request: Any idea what ELISA fold over background was measured for 1-47 (antibody, V domains shown, also called variant 1-47) VH: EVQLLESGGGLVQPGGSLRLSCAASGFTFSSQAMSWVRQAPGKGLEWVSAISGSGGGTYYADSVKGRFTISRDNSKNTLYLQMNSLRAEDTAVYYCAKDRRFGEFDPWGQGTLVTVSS VL: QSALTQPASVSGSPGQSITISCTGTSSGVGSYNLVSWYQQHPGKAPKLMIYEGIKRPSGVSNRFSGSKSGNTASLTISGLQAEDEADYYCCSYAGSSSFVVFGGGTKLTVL ?
Data returned: 0.9

Data request: Any idea what its ELISA fold over background is? The binder is 1-35 (antibody, V domains shown, also called variant 1-35) VH: EVQLLESGGGLVQPGGSLRLSCAASGFTFSNYAMSWVRQAPGKGLEWVSDISGSGGSTYYADSVKGRFTISRDNSKNTLYLQMNSLRAEDTAVYYCVKGTIPIFGVIRSAFDYWGQGTLVTVSS VL: QSALTQPASVSGSPGQSITISCTGTSSDVGSYSLVSWYQQHPGKAPKLMIYEGTKRPSGVSNRFSGSKSGNTASLTISGLQAEDEADYYCCSYAGSYSYVVFGGGTKLTVL
Data returned: 1.6

Data request: Requested read-out: ELISA fold over background. Entry: 1-4 (antibody, V domains shown, also called variant 1-4) VH: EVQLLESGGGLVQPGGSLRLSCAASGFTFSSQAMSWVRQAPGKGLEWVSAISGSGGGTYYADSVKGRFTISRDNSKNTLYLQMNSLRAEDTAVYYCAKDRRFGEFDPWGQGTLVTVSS VL: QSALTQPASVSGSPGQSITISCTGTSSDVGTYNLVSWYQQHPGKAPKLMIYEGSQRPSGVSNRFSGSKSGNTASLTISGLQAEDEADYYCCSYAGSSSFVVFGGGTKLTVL
Data returned: 1.1

Data request: Name the reported ELISA fold over background value associated with the binder 1-23 (antibody, V domains shown, also called variant 1-23) VH: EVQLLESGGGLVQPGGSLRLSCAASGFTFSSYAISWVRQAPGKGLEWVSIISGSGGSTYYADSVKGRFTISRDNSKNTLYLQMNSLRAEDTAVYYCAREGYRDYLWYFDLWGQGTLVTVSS VL: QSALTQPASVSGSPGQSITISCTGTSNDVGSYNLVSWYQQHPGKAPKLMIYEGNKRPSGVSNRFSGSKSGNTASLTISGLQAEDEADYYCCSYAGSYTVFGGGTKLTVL
Data returned: 1.6

Data request: Form field: reported ELISA fold over background of 1-7 (antibody, V domains shown, also called variant 1-7) VH: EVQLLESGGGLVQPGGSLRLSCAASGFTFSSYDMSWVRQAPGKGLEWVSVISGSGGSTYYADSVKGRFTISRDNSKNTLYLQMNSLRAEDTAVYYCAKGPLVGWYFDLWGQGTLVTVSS VL: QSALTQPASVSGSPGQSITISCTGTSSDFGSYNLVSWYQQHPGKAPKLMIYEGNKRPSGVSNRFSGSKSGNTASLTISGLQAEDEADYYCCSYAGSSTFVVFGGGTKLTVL
Data returned: 1.6

Data request: So what's the measured ELISA fold over background for this one? 1-5 (antibody, V domains shown, also called variant 1-5) VH: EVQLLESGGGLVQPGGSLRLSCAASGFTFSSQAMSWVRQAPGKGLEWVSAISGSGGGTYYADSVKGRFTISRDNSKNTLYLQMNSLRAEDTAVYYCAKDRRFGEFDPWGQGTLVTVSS VL: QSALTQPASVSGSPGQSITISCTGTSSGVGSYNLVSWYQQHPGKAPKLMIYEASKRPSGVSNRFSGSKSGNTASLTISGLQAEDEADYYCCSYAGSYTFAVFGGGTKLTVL
Data returned: 1.4
